Value source: patent US20260069689A1

Molecular target: SARS-COV-2 RBD extracellular domain expressed with a C-terminal myc-myc-hexahistidine tag (SARS-COV-2 RBD-mmH) (SARS-CoV-2)
Assay: SPR Biacore, mAb captured on anti-hFc, RBD-mmH analyte, 37 C
Hi, to clarify the labels: True covers t½ from 2 min upward, False covers anything below 2 min.

Solved entries (count: 3):
- mAb15157 (antibody, V domains shown) VH: EVQLVESGGALVQPGGSLRLSCAASGFPFTIYAMTWVRQAPGKGLEWVSVITGSGDSTYYADSVKGRFTISRDNSKNTLYLQMNSLRAEDTAVYYCVKTGEGFFYYYYGMDVWGQGTTVTVSS VL: QSVLTQPPSVSAAPGQKVTISCSGSSSNIGNSYISWYQQLPGTAPKLLIYVNNKRPSGIPDRFSGSKSGTSATLGITGLQTGDEADYYCGTWDSSLSAGVFGSGTKVTVLG: True
- mAb14285 (antibody, V domains shown) VH: QVQLVQSGAEVKKPGASVKVSCKASGYTFTGYFIHWVRQAPGQGLEWMGWISPISGGTNYAQKFQGRVTVTRDTSITTAYMELSRLTSDDTAVYHCAREGGTWKGDFDYWGQGTLVTVSS VL: QSALTQPASVSGSPGQSITISCTGTSSDVESYNLVSWYQQHPGKAPKLMIYEGSKRPSGVSNRFSGSKSGNTASLTISGLQAEDEADYYCSSYAGSSTWVFGGGTKLTVLG: False
- mAb15159 (antibody, V domains shown) VH: EVQLVESGGGLVQPGGSLRLSCAASGITVSSNYMTWVRQAPGKGLEWVSLIYSGGSTFYADSVRGRFTISRDNSKNTLYLQMNSLRAEDTAVYYCARDLVVYGMDVWGQGTTVTVSS VL: DIQLTQSPSSLSASVGDRVTITCRASQGISSYLAWYQQKPGKAPKLLIYAASTLQSGVPSRFSGSGSGTDFTLTISSLQPEDFATYYCQHLNSDPHTFGQGTKLEIKR: True

Task: Is it the case that mAb14255 (antibody, V domains shown) VH: QVQLQESGPGLVKPSETLSLTCTVSGGSISGYYWSWIRQPPGKGLDWIGYIYYRGNTNYNPSLKSRVTISVDTSNNQFSLKLSSVTAADTAVYYCARYGEGYGDASGYHFDYWGQGTLVTVSS VL: QSALTQPASVSGSPGQSITISCTGTSSDVGSYNLVSWYQQHPGKAPKLMIYEDSKRPSGVANPFSGSKSGNTASLTISGLQAEDEADYYCSSYAGSSTWVFGGGTKLTVLG has t½ reaching or exceeding 2 min?
Output: True
